Entries annotated with measured Inhibitory Ratio of NF-κ B Activation(%)
System: NF-κB activation
Test: Inhibitory activity against NF-κB activation, luciferase reporter assay under TNF-α stimulation
Format: cell-based, human
Details: Drug Concentration 10 μg/mL; HepG2 cells, TNF-α 40 ng/ml, 4 hours
metric: Inhibitory Ratio of NF-κ B Activation(%)

[[record]]
compound_string = "O=C(Cc1ccccc1)Oc1ccc(Cl)cc1C(=O)Nc1cc(C(F)(F)F)cc(C(F)(F)F)c1"
data_value = 97.9

[[record]]
compound_string = "Cl.N[C@@H](Cc1ccccc1)C(=O)Oc1ccc(Cl)cc1C(=O)Nc1cc(C(F)(F)F)cc(C(F)(F)F)c1"
data_value = 97.5

[[record]]
compound_string = "O=C(CCC(=O)Oc1ccc(Cl)cc1C(=O)Nc1cc(C(F)(F)F)cc(C(F)(F)F)c1)OCc1ccccc1"
data_value = 98.1

[[record]]
compound_string = "CC(C)(C)OC(=O)C[C@H](NC(=O)OC(C)(C)C)C(=O)Oc1ccc(Cl)cc1C(=O)Nc1cc(C(F)(F)F)cc(C(F)(F)F)c1"
data_value = 97.0

[[record]]
compound_string = "O=C(Cc1ccc2c(c1)OCO2)Oc1ccc(Cl)cc1C(=O)Nc1cc(C(F)(F)F)cc(C(F)(F)F)c1"
data_value = 97.3

